Source of measurements: BigSolDB 2.1

# condition_notes: in acetonitrile, 288.15 K
recorded_endpoint: solubility (mole fraction)

1. Cc1c(OCC(F)(F)F)ccnc1CS(=O)c1nc2ccccc2[nH]1 (stereo unspecified) ... 0.00516
